- Tested on: siRNA-Tdp1 CL187 cells
- assay info: Cell viability of Tdp1-silenced cells
- Assay type: cell-based, Human
- cond: Homo sapiens, 24 h, siRNA-Tdp1 CL187, 24 h
test readout: pIC50
The scale used: pIC50 is minus the common logarithm of the concentration in molar units.

Fill in reported pIC50 for this entry: COc1cc(/C=C/c2ccc(O)cc2)cc(OC)c1 [PTE, 3,5-dimethoxy-4′-hydroxy-trans-stilbene]
4.13

----------
- Tested on: HFL-1
- assay info: Proliferation of non-tumor cells (CCK-8)
- Type: cell-based
- cond: Homo sapiens, HFL1; HFL-1, 48 h
test readout: IC50 (µM)
Please give a number only; it is taken to be in µM.

Please supply the value of reported IC50 for the item COc1cc(/C=C/c2ccc(O)cc2)cc(OC)c1 [PTE, 3,5-dimethoxy-4′-hydroxy-trans-stilbene]
315

----------
- Tested on: LoVo
- assay info: Cell viability assay (CCK-8)
- Type: cell-based, Human
- cond: 72 h, listed as Pterostilbene
- Method: PTE or RE were dissolved in DMSO and diluted with culture medium to 1–100 μM. The final concentration of DMSO was less than 0.1%, and 0.1% DMSO as negative control. CPT, as Top1 inhibitor, was diluted to 0.5 μM [36, 37], and FM, as Tdp1 inhibitor was diluted to 25 μM [38]. Exponentially growing cells were seeded in 96-well plates (5 × 10^3 cells/well) for 12 h. […] Cell viability was determined by CCK-8 (Beyotime Biotechnology, Shanghai, China) assay. […]
test readout: IC50 (µM)
Field format: number, assumed µM, no unit text.

Item COc1cc(/C=C/c2ccc(O)cc2)cc(OC)c1 [PTE, 3,5-dimethoxy-4′-hydroxy-trans-stilbene] : provide IC50
12

The values you see were collected from paper PMC8391236.
